Values compiled from the Human Domainome abundance scans (Beltran et al. 2025).

B1: E3 ubiquitin-protein ligase NEDD4, residues 836 to 881; numbered along this chain, P46934 (parent)
chain: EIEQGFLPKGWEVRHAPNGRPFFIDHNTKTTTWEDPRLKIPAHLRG

Variants of: B1
measurement.description: abundance fitness (aPCA) (normalised: wild type 0, dead -1); higher = more abundant; growth selection in yeast, the domain comes from the species named
condition.details: Homo sapiens
Classes are defined on abundance fitness with ranges low value (below -0.5), medium value (-0.5 to below -0.1), high value (-0.1 or more)

T31S    high value
T31K    low value
L44N    medium value
I40A    high value
P36S    low value

Kindly consider the entry below.
Query: Lab note: sort H43A into the matching abundance fitness band.
Result: medium value
